# Experimental context: 328.15 K; Liquid

{"Compound": "CCCCCCCl [1-chlorohexane]", "vapor or sublimation pressure (kPa)": 5.965}
{"Compound": "C1CCOCC1 [tetrahydropyran]", "vapor or sublimation pressure (kPa)": 33.95}
{"Compound": "C1COCO1 [1,3-dioxolane]", "vapor or sublimation pressure (kPa)": 49.01}
{"Compound": "C1CCOC1 [tetrahydrofuran]", "vapor or sublimation pressure (kPa)": 70.61}
{"Compound": "C1COCCO1 [1,4-dioxane]", "vapor or sublimation pressure (kPa)": 19.54}

====

# Experimental context: 298.15 K; Liquid

{"Molecule": "C1CCOC1 [tetrahydrofuran]", "Unit abbreviation": "kPa", "vapor or sublimation pressure": 21.61}
{"Molecule": "C1CCOCC1 [tetrahydropyran]", "Unit abbreviation": "kPa", "vapor or sublimation pressure": 9.56}
{"Molecule": "C1COCO1", "Unit abbreviation": "kPa", "vapor or sublimation pressure": 13.54}
{"Molecule": "C1COCCO1", "Unit abbreviation": "kPa", "vapor or sublimation pressure": 4.9}
{"Molecule": "CCCCCCCl", "Unit abbreviation": "kPa", "vapor or sublimation pressure": 1.255}

Where these numbers come from: the NIST ThermoML archive (doi:10.1016/j.jct.2008.03.017)
